In this section we review reported pre-emergence activity against GLXMA in % (crop plant damage) values for a set of compounds.
# System: Glycine max (GLXMA)
# Assay overview: Pre-emergence effects on crop plants, section D (Table D4)
# Type: in vivo
# Condition notes: application rate 320 g/ha; visual grading after ca. 3 weeks
# Text: Seeds of mono- and dicotyledonous weed plants and crop plants were sown, in plastic or organic planting pots, in sandy loam and covered with soil. The compounds according to the invention, formulated in the form of wettable powders (WP) or as emulsifiable concentrates (EC), were applied to the surface of the covering soil as aqueous suspension or emulsion, with the addition of 0.5% of an additive, at an application rate of 600 l of water/ha (converted). […]
All answers are understood in %, so give the number only.

Here's what some known entries look like.
Compound: Cc1cc2c(nc1-c1cccc(C)c1F)NCS2 [Example I-113]
Measured value: 10
//
Compound: Cc1cc2c(nc1-c1ccccc1F)N(C(=O)C1CC1)CS2 [Example I-018]
Measured value: 10
//
Compound: CCc1ccccc1-c1nc2c(cc1C)[S+]([O-])CN2 (centres unmarked) [Example I-047]
Measured value: 20

// returns pre-emergence activity against GLXMA in % (crop plant damage) for COc1ccccc1-c1nc2c(cc1Br)SCN2B(N)N [Example I-087] with Glycine max (GLXMA); value = 20

// returns pre-emergence activity against GLXMA in % (crop plant damage) for Cc1cc2c(nc1-c1ccccc1Cl)NCS2 [Example I-049] with Glycine max (GLXMA); value = 0

* * *

In this section we review reported pre-emergence activity against BRSNW in % (crop plant damage) values for a set of compounds.
# Test system: Brassica napus (BRSNW)
# Assay overview: Pre-emergence effects on crop plants, section D (Table D5)
# Format: in vivo
# Condition notes: application rate 80 g/ha; visual grading after ca. 3 weeks
# include the unit after the value

Here's what some known entries look like.
Compound: CC(=O)N1CSc2cc(Br)c(-c3ccccc3Cl)nc21 [Example I-055]
Measured value: 20%
//
Compound: CCS(=O)(=O)N1CS(=O)(=O)c2cc(C)c(-c3ccccc3F)nc21 [Example I-146]
Measured value: 0%
//
Compound: Cc1cc2c(nc1-c1ccccc1F)N(C(=O)C1CC1)CS2 [Example I-018]
Measured value: 10%
//
Compound: COC(=O)CCC(=O)N1CSc2cc(Cl)c(-c3ccccc3F)nc21 [Example I-003]
Measured value: 20%
//
Compound: COCCOCCOCC(=O)N1CSc2cc(Br)c(-c3cccc(F)c3F)nc21 [Example I-148]
Measured value: 0%

pre-emergence activity against BRSNW in % (crop plant damage) reported for this compound CC1(C(=O)N2CSc3cc(Br)c(-c4ccccc4Cl)nc32)CC(Cl)=NO1 (stereo not shown) [Example I-141] : 20%

pre-emergence activity against BRSNW in % (crop plant damage) reported for this compound COc1ccccc1-c1nc2c(cc1Br)SCN2B(N)N [Example I-087] : 20%

* * *

# Tested on: Polygonum convolvulus (POLCO)
# Assay overview: Herbicidal pre-emergence action, section C (Table C7)
# Format: in vivo
# Condition notes: Fallopia convolvulus, pre-emergence, 504 h; application rate 320 g/ha; visual grading after ca. 3 weeks; read-out: pre-emergence activity against POLCO in %
Parameter: pest or weed control at 320 g/ha (%)
All answers are understood in %, so give the number only.

Here's what some known entries look like.
Compound: Fc1ccccc1-c1nc2c(cc1Br)SCN2
Parameter: pest or weed control at 320 g/ha
Measured value: 80
//
Compound: Cc1cc2c(nc1-c1ccccc1Cl)NCS2
Parameter: pest or weed control at 320 g/ha
Measured value: 80
//
Compound: CCOCCS(=O)(=O)N1C[S+]([O-])c2cc(C)c(-c3ccccc3F)nc21 (stereo not shown)
Parameter: pest or weed control at 320 g/ha
Measured value: 90

// returns pest or weed control at 320 g/ha for CC1(C(=O)N2CSc3cc(Br)c(-c4ccccc4Cl)nc32)CC(Cl)=NO1 (stereo not shown) with Polygonum convolvulus (POLCO); value = 80

// returns pest or weed control at 320 g/ha for CC(=O)N1CSc2cc(Br)c(-c3ccccc3Cl)nc21 with Polygonum convolvulus (POLCO); value = 80

// returns pest or weed control at 320 g/ha for CCS(=O)(=O)N1C[S+]([O-])c2cc(C)c(-c3ccccc3C)nc21 (stereo not shown) with Polygonum convolvulus (POLCO); value = 90

// returns pest or weed control at 320 g/ha for CCc1ccccc1-c1nc2c(cc1C)[S+]([O-])CN2 (stereo not shown) with Polygonum convolvulus (POLCO); value = 80

// returns pest or weed control at 320 g/ha for Cc1cc2c(nc1-c1cccc(F)c1F)NCS2 with Polygonum convolvulus (POLCO); value = 80

// returns pest or weed control at 320 g/ha for Cc1cc2c(nc1-c1ccccc1F)N(C(=O)C1CC1)CS2 with Polygonum convolvulus (POLCO); value = 90

// returns pest or weed control at 320 g/ha for Cc1cc2c(nc1-c1ccccc1F)NCS2 with Polygonum convolvulus (POLCO); value = 80
